# EXPERIMENTAL PROTOCOL: AUC in plasma and brain following a single oral dose
# Format: in vivo, Mouse (NOD SCID)
# SETUP CONDITIONS: brain, Mouse (NOD SCID), Female, 100 mg/kg, single dose, read-out: Brain/Plasma AUC0-24h ratio (%)
RECORDED METRIC: Kp
I'd appreciate a reply containing only the number, no unit.

Lookup: What measured Kp goes with C=CC(=O)N1CCN(c2c(C#N)c(=O)n(-c3c(C)ccnc3C(C)C)c3nc(-c4c(N)c(F)c(F)c(F)c4F)c(Cl)cc23)CC1 [Glecirasib] ?
Found: 0.0372

###

# TEST TARGET: GppNp-bound HRAS WT (Homo sapiens, UniProt P01112)
# Construct: His-tagged HRAS WT (aa 1–166); made in house; host or cells: Escherichia coli
# Sequence (P01112 1-166): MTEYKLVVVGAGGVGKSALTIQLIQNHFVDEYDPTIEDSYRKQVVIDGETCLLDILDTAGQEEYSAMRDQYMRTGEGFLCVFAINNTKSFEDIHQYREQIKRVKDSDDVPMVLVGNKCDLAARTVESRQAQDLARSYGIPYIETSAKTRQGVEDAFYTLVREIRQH
# EXPERIMENTAL PROTOCOL: GppNp-loaded RAS and cRAF interaction assay (HTRF)
# Type: biochemical
# SETUP CONDITIONS: GppNp-bound HRAS WT and cRAF RBD interaction; read-out: IC50
RECORDED METRIC: IC50

Lookup: What measured IC50 goes with C=CC(=O)N1CCN(c2nc(=O)n(-c3c(C)ccnc3C(C)C)c3nc(-c4c(O)cccc4F)c(F)cc23)[C@@H](C)C1 [Sotorasib, reference compound] ?
Found: > 10 µM
